Measured max response, listed per entry for reference.
# Tested on: HaCat
# protocol-summary: Cytotoxic Profiling of Annotated Libraries Using Quantitative High-Throughput Screening (AID 1296008); note: % is set by controls: 0 for no effect and ±100 for the full control effect; nearly all actives have a fitted effect of over 60% in size
# experimental-conditions: Five cell lines viability, CellTiter-Glo ATP luminescence, 48-72 h; active compounds read low
Results filed as inconclusive are left out.
Just the number in %, nothing appended.

1. COc1ccc([C@@H]2OC[C@H]3[C@@H]2CO[C@@H]3c2ccc(OC3OC(CO)C(O)C(O)C3O)c(OC)c2)cc1OC (some centres not stated) | -0.266
2. C=C1CCC2C(C)(C(=O)O)CCCC2(C)C1CCC(C)CC(=O)O (configuration not stated) | 3.35
3. COC(=O)[C@H](O)[C@H]1C(C)(C)[C@H](OC(=O)C(C)C)[C@@]2(O)C(=O)[C@]1(C)C1CC[C@]3(C)C(CC(=O)O[C@H]3c3ccoc3)[C@]13O[C@@H]32 (some centres not stated) | -4.38
4. C=C(C(=O)O)C1CCC2(C)CCC(O)C(C)(O)C2C1 (configuration not stated) | -8.51

The reported max response of the compound C=C(C)C1CC[C@]2(C(=O)O)CC[C@]3(C(=O)O)[C@H](CCC4[C@@]5(C)CC[C@H](O)C(C)(C)C5CC[C@]43C)C12 (some centres not stated) was -4.71

The reported max response of the compound C=C1C(O)C[C@@H]2C(C(=O)O)=CO[C@@H](O[C@@H]3O[C@H](CO)[C@@H](O)[C@H](O)[C@H]3OC(=O)c3ccc(O)cc3)[C@H]12 (some centres not stated) was 0.151

The reported max response of the compound CC(C)(F)C[C@@H](N[C@@H](c1ccc(-c2ccc(S(C)(=O)=O)cc2)cc1)C(F)(F)F)C(=O)NC1(C#N)CC1 was -33

----------
# Tested on: CRL-7250
# protocol-summary: Cytotoxic Profiling of Annotated Libraries Using Quantitative High-Throughput Screening (AID 1296008); note: % is set by controls: 0 for no effect and ±100 for the full control effect; nearly all actives have a fitted effect of over 60% in size
# experimental-conditions: Five cell lines viability, CellTiter-Glo ATP luminescence, 48-72 h; active compounds read low
Records with an inconclusive call do not appear.
Measured max response, listed per entry for reference.
Just the number in %, nothing appended.

Consider the worked cases shown below.
1. COc1cc(/C=C/C(=O)O[C@H]2[C@H](O)[C@@H](CO)O[C@@]2(CO)O[C@H]2O[C@H](CO)[C@@H](O)[C@H](O)[C@H]2O)ccc1O | 3.83
2. O=C(CCCCN1CCOCC1)Nc1ccc(-c2cccnc2)cc1 | -12
3. C=C1C[C@]23C[C@H]1CC[C@H]2[C@@]1(C)CCC[C@@]2(C)C(=O)O[C@@H]([C@@H]3O)[C@@H]12 | -15.4

Switching to the query record.
The reported max response value, CRL-7250, for C=C(C)C1CC[C@]2(C(=O)O)CC[C@]3(C(=O)O)[C@H](CCC4[C@@]5(C)CC[C@H](O)C(C)(C)C5CC[C@]43C)C12 (some centres undefined) reads -0.813

----------
# Test system: CAOV3
# protocol-summary: Primary qHTS to identify gynecologic anti-cancer compounds using libraries of approved drugs and bioactive compounds (AID 1345084); note: nearly all actives have a fitted effect of over 55% in size
# experimental-conditions: Gynecologic cancer cell panel viability, ATPlite luminescence, 48 h; series mostly up to 57.5 µM
Records with an inconclusive call do not appear. Active and inactive are the calls of the source. Calls follow the shape of the dose curve; as a rule, active = well fitted cell-killing curve with a large enough effect; inconclusive = small, poorly fitted or top-dose-only effect, or effect the other way; inactive = flat fitted curve, though single readings scatter.
Bench note: report the call from active, inactive

Examples from the recorded data:
1. CC1=C2C[C@H]3O[C@@]3(C)CCC3O[C@@]3(C)C[C@@]2(O)OC1=O (stereo not given in full) | inactive
2. C=C1C(=O)O[C@H](CCC)[C@H]1C(=O)O | inactive
3. COC(=O)c1ccnc(-c2cc(C(=O)NCCc3ccccc3)ccn2)c1 | inactive
4. CC12CCC(OC3OC(CO)C(O)C(OC4OC(CO)C(O)C(O)C4O)C3O)CC1CCC1C2CCC2(C)/C(=C3/COC(=O)C3)CCC12O (stereo not given) | inactive
5. O=C(O)CC(=O)OC[C@H]1O[C@@H](Oc2ccc3c(c2)OC[C@H]2c4cc5c(cc4O[C@@H]32)OCO5)[C@H](O)[C@@H](O)[C@@H]1O | inactive
6. CC(=O)c1ccc(O[C@@H]2O[C@H](CO)[C@@H](O)[C@H](O)[C@H]2O)cc1 | inactive
7. CNC(=O)c1ccccc1Nc1nc(Nc2ccc3c(c2OC)CCCC(N2CCN(CCO)CC2)C3)ncc1Cl (stereo not given) | active
8. COC(=O)C(C)C1CCC2(C)C(=O)C=CC(C)(O)C2C1O (stereo not given) | inactive
9. O=C(Nc1c(-c2cccs2)nc2ccccn12)c1ccc(Cl)cc1 | inactive

Write down the call the test reported for this molecule. Item: O=C(NCC(O)CO)c1ccncc1Nc1ccc(I)cc1F (stereo not given)
inactive
